Ref: paper PMC8436411

remaining activity at 10 µM by entry:
# TARGET OR SYSTEM: Human topoisomerase IIα (Homo sapiens, UniProt P11388)
# Sequence (P11388 whole entry): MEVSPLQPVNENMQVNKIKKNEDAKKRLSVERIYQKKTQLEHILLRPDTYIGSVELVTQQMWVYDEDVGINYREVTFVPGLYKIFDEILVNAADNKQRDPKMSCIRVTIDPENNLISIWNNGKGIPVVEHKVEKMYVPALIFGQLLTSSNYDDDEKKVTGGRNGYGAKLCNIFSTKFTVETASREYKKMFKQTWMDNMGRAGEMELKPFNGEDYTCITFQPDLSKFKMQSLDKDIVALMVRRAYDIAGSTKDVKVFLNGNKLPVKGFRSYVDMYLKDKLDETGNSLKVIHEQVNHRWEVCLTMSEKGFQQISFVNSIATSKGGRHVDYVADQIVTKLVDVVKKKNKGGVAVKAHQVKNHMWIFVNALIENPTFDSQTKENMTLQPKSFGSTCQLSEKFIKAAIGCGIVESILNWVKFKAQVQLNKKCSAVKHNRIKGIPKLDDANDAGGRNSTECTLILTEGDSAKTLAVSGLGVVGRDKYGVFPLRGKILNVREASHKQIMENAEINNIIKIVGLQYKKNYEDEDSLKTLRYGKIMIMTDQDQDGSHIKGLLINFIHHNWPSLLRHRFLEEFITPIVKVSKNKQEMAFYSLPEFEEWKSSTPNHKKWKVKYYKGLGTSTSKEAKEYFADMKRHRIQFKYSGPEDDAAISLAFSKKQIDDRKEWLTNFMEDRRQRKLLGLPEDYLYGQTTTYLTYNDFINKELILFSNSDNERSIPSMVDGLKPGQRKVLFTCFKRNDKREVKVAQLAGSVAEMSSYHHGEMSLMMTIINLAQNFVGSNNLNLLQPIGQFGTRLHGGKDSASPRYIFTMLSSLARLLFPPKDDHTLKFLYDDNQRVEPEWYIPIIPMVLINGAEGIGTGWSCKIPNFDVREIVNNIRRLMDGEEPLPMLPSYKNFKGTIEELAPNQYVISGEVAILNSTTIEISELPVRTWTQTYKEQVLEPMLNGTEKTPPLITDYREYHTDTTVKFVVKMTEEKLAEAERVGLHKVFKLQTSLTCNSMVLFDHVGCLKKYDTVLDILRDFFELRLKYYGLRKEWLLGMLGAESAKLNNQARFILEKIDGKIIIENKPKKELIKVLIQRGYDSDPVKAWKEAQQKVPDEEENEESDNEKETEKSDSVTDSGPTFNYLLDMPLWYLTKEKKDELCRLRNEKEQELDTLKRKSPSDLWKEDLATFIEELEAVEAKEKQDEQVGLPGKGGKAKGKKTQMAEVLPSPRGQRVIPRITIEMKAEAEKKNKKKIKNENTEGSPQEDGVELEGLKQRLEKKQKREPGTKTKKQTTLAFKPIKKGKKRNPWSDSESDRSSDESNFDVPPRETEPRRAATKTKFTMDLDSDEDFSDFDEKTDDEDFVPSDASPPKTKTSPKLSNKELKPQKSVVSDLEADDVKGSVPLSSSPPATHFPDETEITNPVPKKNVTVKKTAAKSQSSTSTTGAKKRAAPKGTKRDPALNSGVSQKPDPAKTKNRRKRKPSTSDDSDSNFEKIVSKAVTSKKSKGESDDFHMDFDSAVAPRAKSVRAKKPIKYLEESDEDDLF
# ASSAY NAME: Human topoisomerase IIα residual activity
# Type: biochemical
# CONDITION: residual activity at 10 μM compound; mean ± SD, two independent experiments; read-out: Human topoisomerase IIα (%RA)

[
  {
    "MOLECULE": "COc1ccc2nccc(CCN3CCC(NCc4ccc(I)c(F)c4F)CC3)c2n1 [Compound 11]",
    "remaining activity at 10 µM (%)": 94.9
  },
  {
    "MOLECULE": "COc1ccc2nccc(CCN3CCC(NCc4cc(F)c(Br)cc4F)CC3)c2n1 [Compound 9]",
    "remaining activity at 10 µM (%)": 98.8
  },
  {
    "MOLECULE": "COc1ccc2nccc(CCN3CCC(NCc4ccc(Cl)c(F)c4)CC3)c2n1 [Compound 4]",
    "remaining activity at 10 µM (%)": 99.2
  },
  {
    "MOLECULE": "COc1ccc2nccc(CCN3CCC(NCc4ccc(Br)c(F)c4F)CC3)c2n1 [Compound 10]",
    "remaining activity at 10 µM (%)": 98.1
  },
  {
    "MOLECULE": "COc1ccc2nccc(CCN3CCC(NCc4ccc(Cl)cn4)CC3)c2n1 [Compound 13]",
    "remaining activity at 10 µM (%)": 99.4
  },
  {
    "MOLECULE": "COc1ccc2nccc(CCN3CCC(NCc4ccc(Br)c(F)c4)CC3)c2n1 [Compound 5]",
    "remaining activity at 10 µM (%)": 98.5
  },
  {
    "MOLECULE": "COc1ccc2nccc(CCN3CCC(NCc4ccc(Cl)nc4)CC3)c2n1 [Compound 12]",
    "remaining activity at 10 µM (%)": 99.7
  },
  {
    "MOLECULE": "COc1ccc2nccc(CCN3CCC(NCc4cc(F)c(Cl)c(F)c4)CC3)c2n1 [Compound 7]",
    "remaining activity at 10 µM (%)": 99.4
  }
]

----------
# TARGET OR SYSTEM: S. aureus topoIV (Staphylococcus aureus)
# Sequence (Q2FYS4 whole entry, looked up): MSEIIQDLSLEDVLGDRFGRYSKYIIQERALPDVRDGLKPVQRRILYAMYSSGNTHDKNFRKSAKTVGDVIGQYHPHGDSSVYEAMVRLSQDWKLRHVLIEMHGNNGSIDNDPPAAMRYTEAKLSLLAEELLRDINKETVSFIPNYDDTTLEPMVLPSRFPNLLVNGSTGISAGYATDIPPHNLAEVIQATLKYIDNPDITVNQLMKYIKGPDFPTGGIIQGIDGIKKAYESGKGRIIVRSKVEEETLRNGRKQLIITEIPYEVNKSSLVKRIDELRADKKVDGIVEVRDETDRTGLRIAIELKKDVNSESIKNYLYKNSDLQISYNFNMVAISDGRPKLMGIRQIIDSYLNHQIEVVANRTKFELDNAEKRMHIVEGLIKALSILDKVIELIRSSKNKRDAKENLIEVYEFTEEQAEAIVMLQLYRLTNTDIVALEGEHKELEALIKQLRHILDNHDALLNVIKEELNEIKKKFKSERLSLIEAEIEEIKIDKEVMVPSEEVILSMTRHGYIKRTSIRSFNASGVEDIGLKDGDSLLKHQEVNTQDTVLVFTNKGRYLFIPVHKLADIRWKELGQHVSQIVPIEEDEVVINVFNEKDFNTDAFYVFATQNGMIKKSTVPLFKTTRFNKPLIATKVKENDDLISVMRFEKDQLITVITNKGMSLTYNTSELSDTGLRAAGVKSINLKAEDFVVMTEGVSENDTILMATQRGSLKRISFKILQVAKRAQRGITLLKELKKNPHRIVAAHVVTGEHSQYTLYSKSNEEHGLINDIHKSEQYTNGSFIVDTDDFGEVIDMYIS
PARAMETER: IC50 (nM)

[
  {
    "MOLECULE": "COc1ccc2nccc(CCN3CCC(NCc4ccc(I)c(F)c4)CC3)c2n1 [Compound 6]",
    "MEASURED RESULT": 90
  }
]

----------
MIC by entry:
# Tested on: Streptococcus agalactiae RDK 047 (QA-990/02)
# ASSAY NAME: microbe, parasite or virus in culture
# CONDITION: read-out: MIC Streptococcus agalactiae RDK 047 (QA-990/02)
PARAMETER: MIC (µg/mL)

[
  {
    "STRUCTURE SMILES STRING": "COc1ccc2nccc(CCN3CCC(NCc4cc(F)c(Br)cc4F)CC3)c2n1",
    "PARAMETER": "MIC",
    "MEASURED RESULT": 0.25
  },
  {
    "STRUCTURE SMILES STRING": "COc1ccc2nccc(CCN3CCC(NCc4ccc(I)c(F)c4F)CC3)c2n1",
    "PARAMETER": "MIC",
    "MEASURED RESULT": 0.5
  },
  {
    "STRUCTURE SMILES STRING": "COc1ccc2nccc(CCN3CCC(NCc4ccc(Br)c(F)c4F)CC3)c2n1",
    "PARAMETER": "MIC",
    "MEASURED RESULT": 2
  },
  {
    "STRUCTURE SMILES STRING": "COc1ccc2nccc(CCN3CCC(NCc4ccc(Br)c(F)c4)CC3)c2n1",
    "PARAMETER": "MIC",
    "MEASURED RESULT": 2
  },
  {
    "STRUCTURE SMILES STRING": "COc1ccc2nccc(CCN3CCC(NCc4ccc(Cl)c(F)c4)CC3)c2n1",
    "PARAMETER": "MIC",
    "MEASURED RESULT": 1
  }
]

----------
MIC by entry:
# System: Enterococcus faecalis DRK 057 (ATCC 29212)
# ASSAY NAME: microbe, parasite or virus in culture
# CONDITION: ATCC29212, read-out: MIC Enterococcus faecalis DRK 057 (ATCC 29212)
PARAMETER: MIC

[
  {
    "STRUCTURE SMILES STRING": "COc1ccc2nccc(CCN3CCC(NCc4ccc(Br)c(F)c4F)CC3)c2n1",
    "MEASURED RESULT": "2 µg/mL"
  },
  {
    "STRUCTURE SMILES STRING": "COc1ccc2nccc(CCN3CCC(NCc4ccc(Cl)nc4)CC3)c2n1",
    "MEASURED RESULT": "32 µg/mL"
  },
  {
    "STRUCTURE SMILES STRING": "COc1ccc2nccc(CCN3CCC(NCc4cc(F)c(Cl)c(F)c4)CC3)c2n1",
    "MEASURED RESULT": "0.5 µg/mL"
  },
  {
    "STRUCTURE SMILES STRING": "COc1ccc2nccc(CCN3CCC(NCc4ccc(I)c(F)c4F)CC3)c2n1",
    "MEASURED RESULT": "0.5 µg/mL"
  },
  {
    "STRUCTURE SMILES STRING": "COc1ccc2nccc(CCN3CCC(NCc4ccc(Br)c(F)c4)CC3)c2n1",
    "MEASURED RESULT": "0.5 µg/mL"
  },
  {
    "STRUCTURE SMILES STRING": "COc1ccc2nccc(CCN3CCC(NCc4ccc(Cl)c(F)c4)CC3)c2n1",
    "MEASURED RESULT": "2 µg/mL"
  },
  {
    "STRUCTURE SMILES STRING": "COc1ccc2nccc(CCN3CCC(NCc4ccc(I)c(F)c4)CC3)c2n1",
    "MEASURED RESULT": "0.25 µg/mL"
  },
  {
    "STRUCTURE SMILES STRING": "COc1ccc2nccc(CCN3CCC(NCc4ccc(Cl)cn4)CC3)c2n1",
    "MEASURED RESULT": "4 µg/mL"
  },
  {
    "STRUCTURE SMILES STRING": "COc1ccc2nccc(CCN3CCC(NCc4cc(F)c(Br)cc4F)CC3)c2n1",
    "MEASURED RESULT": "0.5 µg/mL"
  }
]

----------
MIC by entry:
# System: Streptococcus agalactiae RDK 047 (QA-990/02)
# ASSAY NAME: microbe, parasite or virus in culture
# CONDITION: read-out: MIC Streptococcus agalactiae RDK 047 (QA-990/02)

[
  {
    "COMPOUND": "COc1ccc2nccc(CCN3CCC(NCc4cc(F)c(Cl)c(F)c4)CC3)c2n1 [Compound 7]",
    "UNITS OF MEASURE": "µg/mL",
    "MIC": 0.5
  },
  {
    "COMPOUND": "COc1ccc2nccc(CCN3CCC(NCc4ccc(I)c(F)c4)CC3)c2n1 [Compound 6]",
    "UNITS OF MEASURE": "µg/mL",
    "MIC": 0.25
  },
  {
    "COMPOUND": "COc1ccc2nccc(CCN3CCC(NCc4ccc(Cl)nc4)CC3)c2n1 [Compound 12]",
    "UNITS OF MEASURE": "µg/mL",
    "MIC": 64
  },
  {
    "COMPOUND": "COc1ccc2nccc(CCN3CCC(NCc4ccc(Cl)cn4)CC3)c2n1 [Compound 13]",
    "UNITS OF MEASURE": "µg/mL",
    "MIC": 8
  }
]
